Tested on: A2780
assay.name: Cytotoxicity against human A2780 cells assessed as cell viability after 48 hrs by MTT assay
Type: functional, cell-based
condition.parameters: A2780, 48 h
For each of the molecules below, state its pIC50.
Give bare numbers, as −log10 of the molar value.

Previously resolved entries follow.
COc1ccc2c(/C=C/C(=O)c3ccc(OC)c4c3OC(C)(C)C=C4)c[nH]c2c1    7.39
COc1cc(C(=O)/C=C/c2cccc3[nH]ccc23)cc(OC)c1OC    7.39
COc1cc(C(=O)/C=C/c2ccc3[nH]ccc3c2)cc(OC)c1OC    7.55

# context switch: different molecule, same pIC50
Prompt: Return pIC50 for the following molecule: COc1ccc2[nH]cc(/C=C(\C)C(=O)c3cc(OC)c(OC)c(OC)c3)c2c1
Completion: 7.49

====

System: A2780
assay.name: Cytotoxicity against human A2780 cells assessed as cell viability after 48 hrs by MTT assay
Assay type: functional, cell-based
condition.parameters: A2780, 48 h
recorded.metric: IC50

COc1ccc2[nH]cc(/C=C/C(=O)c3cc(OC)c(OC)c(OC)c3)c2c1    > 1000 nM
COc1ccc(C(=O)/C=C/c2cn(C)c3cccc(OC)c23)c2c1C=CC(C)(C)O2    > 1000 nM

Prompt: Return IC50 for the following compound: COc1ccc(C(=O)/C=C/c2c[nH]c3cccc(OC)c23)c2c1C=CC(C)(C)O2
Completion: > 1000 nM

====

For each of the compounds below, state its IC50.
Test system: A2780
assay.name: Cytotoxicity against human A2780 cells assessed as cell viability after 48 hrs by MTT assay
Format: functional, cell-based
condition.parameters: A2780, 48 h
Give me the value, and tack the unit on after it.

COc1cc2c(c(OC)c1OC)C/C(=C\c1cccc3[nH]ccc13)C2=O    35 nM

// for each compound below, give its IC50
1. CCCn1cc(/C=C(\C)C(=O)c2cc(OC)c(OC)c(OC)c2)c2ccc(OC)cc21
2. COc1ccc(/C=C\c2cc(OC)c(OC)c(OC)c2)cc1O
3. COc1ccc2c(/C=C/C(=O)c3cc(OC)c(OC)c(OC)c3)cn(C)c2c1

Completion:
597 nM
9 nM
25 nM
